# Test system: Cysteinyl leukotriene receptor 1 (Cavia porcellus)
# protocol.notes: Antagonist activity tested against Cysteinyl leukotriene D4 receptor
reported.property: pKB

Please review the entries below; each comes with its answer.
// query Consider the compound "O=C(O)c1cccc(Cn2nnc(-c3cccc(CSc4ccc5ccccc5n4)c3)n2)c1" . State its measured pKB.
// result 5.62

// query Consider the compound "O=C(O)c1cccc(Cn2nnnc2-c2cccc(CSc3ccc4ccccc4n3)c2)c1" . State its measured pKB.
// result 6.2

// query Consider the compound "c1ccc(CCCCOc2ccc(-c3nnn(CCCCCCc4nnn[nH]4)n3)cc2)cc1" . State its measured pKB.
// result 6.24

// query Consider the compound "c1ccc(CCCCCOc2ccc(-c3nnn(CCCCc4nnn[nH]4)n3)cc2)cc1" . State its measured pKB.
// result 5.9

// query Consider the compound "Cc1ccccc1S(=O)(=O)NC(=O)NC(=O)CCCCn1nnc(-c2ccc(OCCCCc3ccccc3)cc2)n1" . State its measured pKB.
// result 5.86

More entries:
// query Consider the compound "c1ccc(CCCCOc2ccc(-c3nnn(CCCCCCCc4nnn[nH]4)n3)cc2)cc1" . State its measured pKB.
// result 5.96

// query Consider the compound "c1ccc(CCCOc2ccc(-c3nnn(CCCCc4nnn[nH]4)n3)cc2)cc1" . State its measured pKB.
// result 6.79
